Molecular target: NLRP3 inflammasome (Homo sapiens, UniProt Q96P20)
Construct: endogenous in cells; host or cells: THP-1 monocytic cells
Sequence (Q96P20 whole entry): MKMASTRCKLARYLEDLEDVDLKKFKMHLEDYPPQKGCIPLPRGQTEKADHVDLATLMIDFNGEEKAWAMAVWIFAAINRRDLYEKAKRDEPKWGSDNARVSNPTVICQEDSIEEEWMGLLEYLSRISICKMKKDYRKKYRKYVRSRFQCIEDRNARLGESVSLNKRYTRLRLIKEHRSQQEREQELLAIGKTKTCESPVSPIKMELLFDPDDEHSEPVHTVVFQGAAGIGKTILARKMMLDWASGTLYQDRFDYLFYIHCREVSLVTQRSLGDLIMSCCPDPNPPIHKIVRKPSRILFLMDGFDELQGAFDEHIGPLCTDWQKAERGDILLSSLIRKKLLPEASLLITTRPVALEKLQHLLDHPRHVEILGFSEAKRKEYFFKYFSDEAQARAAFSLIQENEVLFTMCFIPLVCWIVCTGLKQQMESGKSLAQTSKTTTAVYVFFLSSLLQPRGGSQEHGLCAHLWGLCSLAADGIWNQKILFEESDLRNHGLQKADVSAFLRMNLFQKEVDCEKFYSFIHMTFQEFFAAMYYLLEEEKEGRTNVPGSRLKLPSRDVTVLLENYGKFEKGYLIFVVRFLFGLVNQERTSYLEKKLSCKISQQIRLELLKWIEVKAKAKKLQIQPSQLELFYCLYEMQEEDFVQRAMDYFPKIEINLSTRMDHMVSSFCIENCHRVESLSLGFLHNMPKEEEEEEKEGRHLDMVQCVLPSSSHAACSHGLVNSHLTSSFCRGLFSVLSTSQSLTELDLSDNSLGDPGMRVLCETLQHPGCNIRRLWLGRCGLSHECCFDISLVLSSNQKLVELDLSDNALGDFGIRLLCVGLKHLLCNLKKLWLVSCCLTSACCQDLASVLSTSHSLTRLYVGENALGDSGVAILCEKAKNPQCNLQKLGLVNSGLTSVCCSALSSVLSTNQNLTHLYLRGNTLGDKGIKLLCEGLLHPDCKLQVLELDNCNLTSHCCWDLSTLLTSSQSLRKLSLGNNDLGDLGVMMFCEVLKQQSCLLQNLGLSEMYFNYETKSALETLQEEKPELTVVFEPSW
Test: IL-1β secretion assay (NLRP3 IC50) in LPS-primed, nigericin-activated THP-1 cells, HTRF
Type: cell-based
Conditions: monocytic THP-1 cells; LPS 10 ng/mL 3 h priming, then compound + nigericin 10 μM 2 h; relative IC50, 10 concentrations, geometric mean
pIC50: −log10 of the molar value.
measureName: pIC50

Below are worked cases with known answers.
May I ask what pIC50 has been recorded for `Cc1cc(C)c(-c2ccc(N3C[C@@H](CO)O[C@@H](CO)C3)nn2)c(O)c1` ?
7.40

May I ask what pIC50 has been recorded for `Cc1cc(C(F)(F)F)cc(O)c1-c1ccc(N2CC[C@H](CO)C2)nn1` ?
7.36

May I ask what pIC50 has been recorded for `CC(=O)NC[C@H]1CN(c2ccc(-c3c(C)cc(Cl)cc3O)nn2)CCO1` ?
7.12

May I ask what pIC50 has been recorded for CCN1CCOCC2(C1)CN(c1ccc(-c3c(C)cc(C)cc3O)nn1)CCO2 (stereo not drawn) ?
6.01

May I ask what pIC50 has been recorded for `OC[C@@H]1CCCN(c2ccc(-c3c(O)cc(Cl)cc3Cl)nn2)C1` ?
7.02

May I ask what pIC50 has been recorded for `Cc1cc(Cl)cc(O)c1-c1cc(CO)c(N2CCO[C@H](CO)C2)nn1` ?
7.92

May I ask what pIC50 has been recorded for `Cc1cc(Cl)cc(O)c1-c1ccc(N2C[C@@H](O)CC2=O)nn1` ?
7.00

May I ask what pIC50 has been recorded for CCc1cc(Cl)cc(O)c1-c1ccc(N2CC[C@@H]3CCN(C)C[C@@H]32)nn1 (single isomer, unassigned) ?
9.00

A = CC(=O)N1CC[C@@H]2OCCN(c3ccc(-c4c(C)cc(Cl)cc4O)nn3)[C@@H]2C1 (racemic) [Example 222]
B = Cc1cc(Cl)cc(O)c1-c1ccc(N2CC[C@H]3CCN(C)C[C@H]32)nn1 (single isomer, unassigned)
C = CC(=O)N1CC[C@@H]2CCN(c3cc(C(F)F)c(-c4ccc(C(F)(F)F)cc4O)nn3)[C@@H]2C1 (single isomer, unassigned)
Endpoint returns the given compounds ordered by ascending pIC50. Would you mind listing the labels in the order asked for?
C, A, B
(C: 6.55, A: 7.38, B: 9.30)

1 = COc1ccc(-c2nnc(N3CCO[C@H](CO)C3)cc2C)c(O)c1
2 = Cc1cc(C(F)(F)F)cc(O)c1-c1ccc(N2CC[C@@H]3CCNC[C@@H]32)nn1 (single isomer, unassigned)
3 = Cc1cccc(O)c1-c1ccc(N2CCO[C@H]3CCN(C)C[C@H]32)nn1
Endpoint returns the given compounds ordered by ascending pIC50. Would you mind listing the labels in the order asked for?
1, 3, 2

Sourced from patent US20240360151A1
